Recorded values, source patent US8889875B2.

Measurement target: ΔF508-CFTR (Homo sapiens, UniProt P13569, DEL508-508)
Construct: expressed in transfected cells
Sequence (P13569 with tags, fused parts or gaps DEL508-508): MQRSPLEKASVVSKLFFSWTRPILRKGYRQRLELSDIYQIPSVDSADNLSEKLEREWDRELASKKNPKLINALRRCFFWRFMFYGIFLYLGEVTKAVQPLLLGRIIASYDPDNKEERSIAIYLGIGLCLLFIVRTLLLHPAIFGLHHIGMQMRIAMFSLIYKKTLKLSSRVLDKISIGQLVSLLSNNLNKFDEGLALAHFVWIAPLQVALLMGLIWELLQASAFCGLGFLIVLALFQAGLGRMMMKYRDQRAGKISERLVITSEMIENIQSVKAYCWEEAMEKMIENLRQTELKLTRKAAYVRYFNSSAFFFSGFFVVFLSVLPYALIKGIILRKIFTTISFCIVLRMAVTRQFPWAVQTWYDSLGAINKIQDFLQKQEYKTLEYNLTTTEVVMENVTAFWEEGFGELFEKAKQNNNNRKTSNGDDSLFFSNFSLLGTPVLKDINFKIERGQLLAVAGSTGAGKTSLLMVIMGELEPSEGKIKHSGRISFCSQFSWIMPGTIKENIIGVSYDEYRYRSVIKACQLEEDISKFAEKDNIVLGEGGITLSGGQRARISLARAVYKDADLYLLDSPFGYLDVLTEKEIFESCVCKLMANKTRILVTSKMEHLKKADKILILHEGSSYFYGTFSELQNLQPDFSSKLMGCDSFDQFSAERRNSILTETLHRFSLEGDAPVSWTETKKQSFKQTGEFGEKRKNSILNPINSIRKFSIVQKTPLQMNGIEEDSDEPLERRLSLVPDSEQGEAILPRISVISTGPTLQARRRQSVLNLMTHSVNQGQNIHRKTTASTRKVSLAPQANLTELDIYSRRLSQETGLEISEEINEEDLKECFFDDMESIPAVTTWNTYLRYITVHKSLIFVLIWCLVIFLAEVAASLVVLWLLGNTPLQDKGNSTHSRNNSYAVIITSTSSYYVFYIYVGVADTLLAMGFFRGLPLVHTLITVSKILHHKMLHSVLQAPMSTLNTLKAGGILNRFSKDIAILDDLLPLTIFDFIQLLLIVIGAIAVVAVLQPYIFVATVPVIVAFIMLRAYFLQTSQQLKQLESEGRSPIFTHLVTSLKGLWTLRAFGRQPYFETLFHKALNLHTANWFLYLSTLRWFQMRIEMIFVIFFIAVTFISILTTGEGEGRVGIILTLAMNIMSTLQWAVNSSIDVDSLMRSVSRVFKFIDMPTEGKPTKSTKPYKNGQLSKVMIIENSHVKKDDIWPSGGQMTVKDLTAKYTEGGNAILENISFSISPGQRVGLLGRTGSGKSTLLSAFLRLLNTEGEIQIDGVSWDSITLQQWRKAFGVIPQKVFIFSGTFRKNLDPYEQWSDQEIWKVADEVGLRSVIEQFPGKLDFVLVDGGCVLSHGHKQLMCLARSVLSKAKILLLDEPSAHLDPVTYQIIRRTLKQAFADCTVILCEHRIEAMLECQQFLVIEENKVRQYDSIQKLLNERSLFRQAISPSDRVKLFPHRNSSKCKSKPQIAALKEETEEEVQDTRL
Test details: Membrane potential optical assay, identification of correction compounds (single-addition HTS format)
Format: cell-based
Assay setup: PercentActivity; ΔF508-CFTR in NIH3T3 mouse fibroblasts; 16-24 hrs with compound; 10 μM forskolin and 20 μM genistein; read-out: BinnedMaxEfficacy
Endpoint name: Emax

Before answering, review these 3 worked examples.
In [3]: df
Out[3]:
                                   molecule  endpoint_name      result
0  COc1ccccc1Cc1ccc(NC(=O)C2(c3ccccc3OC)CC2)nc1           Emax  25 to 100%
1     CCc1cccc(NC(=O)C2(c3ccc(OC)cc3)CC2)n1           Emax  25 to 100%
2  COc1ccccc1C(=O)c1ccc(NC(=O)C2(c3ccc(Cl)cc3)CC2)nc1           Emax      > 100%

Task: Query Emax for COc1ccccc1C(=O)c1ccc(NC(=O)C2(c3ccc(SC)cc3)CC2)nc1
Output: > 100%

Task: Look up and state reported Emax for COc1ccccc1C(c1ccc(NC(=O)C2(c3ccc4c(c3)OCO4)CC2)nc1)N1CCCC1C(N)=O (stereo not drawn)
Output: > 100%

Task: Supply Emax value. Item: COCC1CCCN1C(c1ccc(NC(=O)C2(c3ccc4c(c3)OCO4)CC2)nc1)c1ccccc1OC (stereo not drawn)
Output: > 100%

Task: Specify Emax for COc1ccc(C2(C(=O)Nc3ccc(Cc4ccccc4OC)cn3)CC2)cc1 and stop.
Output: 25 to 100%

Task: Give the reported value of Emax for this record: O=C(Nc1ccc(CC2CCCCC2)cn1)C1(c2ccc3c(c2)OCO3)CC1
Output: > 100%

Task: Hello, please tell me recorded Emax for this one: O=C(Nc1ccc(C(F)(F)F)cn1)C1(c2ccc3c(c2)OCO3)CC1
Output: 25 to 100%

Task: Please report the measured Emax for N#Cc1ccc(NC(=O)C2(c3ccc4c(c3)OCO4)CC2)nc1
Output: 25 to 100%

Task: Please give the documented Emax of Cc1ccc(NC(=O)C2(c3ccc4c(c3)OC(F)(F)O4)CC2)nc1NCc1ccccc1
Output: > 100%

Task: Read the entry O=C(Nc1cccc(Cc2ccccc2Cl)n1)C1(c2ccc3c(c2)OCO3)CC1 and write its reported Emax.
Output: > 100%

Task: Give a short answer stating reported Emax for COC[C@@H]1CCCN1C(c1ccc(NC(=O)C2(c3ccc4c(c3)OCO4)CC2)nc1)c1ccccc1OC (stereo partly drawn) .
Output: > 100%

Task: Identify measured Emax corresponding to O=C(c1ccccc1)c1ccc(NC(=O)C2(c3ccc4c(c3)OCO4)CC2)nc1
Output: > 100%

Task: Could you please provide reported Emax for COc1cccc(C2(C(=O)Nc3ccc(Cc4ccccc4OC)cn3)CC2)c1 ? Thanks!
Output: 25 to 100%

Task: Provide measured Emax value, entry: COc1ccccc1C(=O)c1ccc(NC(=O)C2(c3ccc(C)cc3)CC2)nc1
Output: > 100%

Task: Answer with the recorded Emax for the molecule listed here: COc1ccccc1C(c1ccc(NC(=O)C2(c3ccc4c(c3)OCO4)CC2)nc1)N1CCC(O)CC1 (stereo not drawn)
Output: > 100%

Task: Return Emax (reported value) for this molecule: COc1ccccc1N(C)c1cccc(NC(=O)C2(c3ccc4c(c3)OCO4)CC2)n1
Output: > 100%

Task: # return recorded Emax for input COc1ccccc1Cc1ccc(NC(=O)C2(c3ccc(OC)c(OC)c3)CC2)nc1
Output: 25 to 100%

Task: Return value of Emax for input COc1ccccc1Cc1ccc(NC(=O)C2(c3ccc4c(c3)OCO4)CC2)nc1 , no commentary.
Output: > 100%

Task: Retrieve Emax measured for O=C(Nc1cccc(CC2CCCCC2)n1)C1(c2ccc3c(c2)OCO3)CC1 and print it.
Output: > 100%
